# Test system: LOX IMVI melanoma
# Assay details: NCI tumour cell line growth inhibition, 48 h
Readout type: TGI

Consider the following illustrative entries.
[
  {
    "Compound": "Cc1ccc(NC(=O)/C(=N/N(C)C)C(C2OC(=O)c3ccccc32)[N+](=O)[O-])cc1 (stereo unspecified)",
    "TGI": "> 100 µM"
  },
  {
    "Compound": "C=CCc1cc(C(Cc2ccccc2)NC(C)C)cc(OCc2ccccc2)c1OCc1ccccc1 (stereo unspecified)",
    "TGI": "31.7 µM"
  },
  {
    "Compound": "CCOC(=O)C(O)(C(=O)OCC)c1cc(C(C)(C)C)c(O)c(C(C)(C)C)c1",
    "TGI": "> 100 µM"
  },
  {
    "Compound": "COC1OC(C)C2OC(C)(C)OC2C1OC(C)=O (stereo unspecified)",
    "TGI": "> 100 µM"
  },
  {
    "Compound": "CC(C)/C(=N\\[N+](C)(C)C)c1ccccc1",
    "TGI": "> 100 µM"
  },
  {
    "Compound": "O=C(CCc1nnc2s/c(=C\\c3ccccc3Cl)c(=O)n12)Nc1cc(Cl)ccc1Cl",
    "TGI": "> 100 µM"
  }
]

For every item below, please supply its TGI.
1. COc1cccc(C2C3=C(COC3=O)N(CCO)c3cc4c(cc32)OCO4)c1 (stereo unspecified)
2. NC(Cc1ncccn1)C(=O)O (stereo unspecified)
3. Cc1nc2sccn2c1C(=O)NC(=O)Nc1ccc(Cl)cc1
4. CC12CCC3c4cc(Br)c(O)c(Br)c4CCC3C1CCC2O (stereo unspecified)
5. Nc1c2c(nc3ccccc13)-c1ccccc1NCCC2

["> 50 µM", "> 100 µM", "> 100 µM", "63.6 µM", "35.5 µM"]
